Target: human SUMO-1_18–97 (SUMO) (Homo sapiens, UniProt P63165)
Sequence (P63165 18-97): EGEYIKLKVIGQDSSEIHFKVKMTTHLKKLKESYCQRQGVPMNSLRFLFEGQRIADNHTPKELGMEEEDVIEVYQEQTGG
Assay: Relaxation-based NMR binding kinetics (15N ZZ-exchange for tighter binders, CPMG relaxation dispersion for weaker binders)
Conditions: pH 7.4
endpoint: koff (s⁻¹)
Give just the numeric value; s⁻¹ need not be written.

CC[C@H](C)[C@H](NC(=O)[C@H](CCC(=O)O)NC(=O)[C@H](CC(N)=O)NC(=O)[C@H](CC(=O)O)NC(C)=O)C(=O)N[C@@H](CCC(=O)O)C(=O)N[C@H](C(=O)N[C@H](C(=O)N(C)[C@H](C(=O)N[C@H](C(=O)N[C@@H](Cc1c[nH]c2ccccc12)C(=O)N[C@@H](CCC(=O)O)C(=O)N[C@@H](CCCCN)C(=O)N[C@@H](CCCCN)C(N)=O)C(C)C)[C@@H](C)CC)[C@@H](C)CC)C(C)C ... 5.9
CC[C@H](C)[C@H](NC(=O)[C@H](CCC(=O)O)NC(=O)[C@H](CC(N)=O)NC(=O)[C@H](CC(=O)O)NC(C)=O)C(=O)N[C@@H](CCC(=O)O)C(=O)N(C)[C@H](C(=O)N[C@H](C(=O)N[C@H](C(=O)N[C@H](C(=O)N[C@@H](Cc1c[nH]c2ccccc12)C(=O)N[C@@H](CCC(=O)O)C(=O)N[C@@H](CCCCN)C(=O)N[C@@H](CCCCN)C(N)=O)C(C)C)[C@@H](C)CC)[C@@H](C)CC)C(C)C ... 208
CC[C@H](C)[C@H](NC(=O)[C@H](CCC(=O)O)NC(=O)[C@H](CC(N)=O)NC(=O)[C@H](CC(=O)O)NC(C)=O)C(=O)N[C@@H](CCC(=O)O)C(=O)N[C@H](C(=O)N[C@H](C(=O)N[C@H](C(=O)N[C@H](C(=O)N[C@@H](Cc1c[nH]c2ccccc12)C(=O)N[C@@H](CCC(=O)O)C(=O)N[C@@H](CCCCN)C(=O)N(C)[C@@H](CCCCN)C(N)=O)C(C)C)[C@@H](C)CC)[C@@H](C)CC)C(C)C ... 8.95

Next molecule, please.
koff for CC[C@H](C)[C@H](NC(=O)[C@@H](NC(=O)[C@H](CCC(=O)O)NC(=O)[C@H]([C@@H](C)CC)N(C)C(=O)[C@H](CCC(=O)O)NC(=O)[C@H](CC(N)=O)NC(=O)[C@H](CC(=O)O)NC(C)=O)C(C)C)C(=O)N[C@H](C(=O)N[C@H](C(=O)N[C@@H](Cc1c[nH]c2ccccc12)C(=O)N[C@@H](CCC(=O)O)C(=O)N[C@@H](CCCCN)C(=O)N[C@@H](CCCCN)C(N)=O)C(C)C)[C@@H](C)CC is 4.58

----------
Molecular target: human SUMO-1_18–97 (SUMO) (Homo sapiens)
Experiment: Relaxation-based NMR binding kinetics (15N ZZ-exchange for tighter binders, CPMG relaxation dispersion for weaker binders)
Details: pH 7.4
endpoint: koff (s⁻¹)
Give just the numeric value; s⁻¹ need not be written.

koff for CC[C@H](C)[C@H](NC(=O)[C@H](CCC(=O)O)NC(=O)[C@H](CC(N)=O)NC(=O)[C@H](CC(=O)O)NC(C)=O)C(=O)N[C@@H](CCC(=O)O)C(=O)N[C@H](C(=O)N[C@H](C(=O)N[C@H](C(=O)N[C@H](C(=O)N[C@@H](Cc1c[nH]c2ccccc12)C(=O)N[C@@H](CCC(=O)O)C(=O)N(C)[C@@H](CCCCN)C(=O)N[C@@H](CCCCN)C(N)=O)C(C)C)[C@@H](C)CC)[C@@H](C)CC)C(C)C is 553
